# target: Proto-oncogene tyrosine-protein kinase Src (Homo sapiens, UniProt P12931)
# Sequence (P12931 2-536 limits assumed): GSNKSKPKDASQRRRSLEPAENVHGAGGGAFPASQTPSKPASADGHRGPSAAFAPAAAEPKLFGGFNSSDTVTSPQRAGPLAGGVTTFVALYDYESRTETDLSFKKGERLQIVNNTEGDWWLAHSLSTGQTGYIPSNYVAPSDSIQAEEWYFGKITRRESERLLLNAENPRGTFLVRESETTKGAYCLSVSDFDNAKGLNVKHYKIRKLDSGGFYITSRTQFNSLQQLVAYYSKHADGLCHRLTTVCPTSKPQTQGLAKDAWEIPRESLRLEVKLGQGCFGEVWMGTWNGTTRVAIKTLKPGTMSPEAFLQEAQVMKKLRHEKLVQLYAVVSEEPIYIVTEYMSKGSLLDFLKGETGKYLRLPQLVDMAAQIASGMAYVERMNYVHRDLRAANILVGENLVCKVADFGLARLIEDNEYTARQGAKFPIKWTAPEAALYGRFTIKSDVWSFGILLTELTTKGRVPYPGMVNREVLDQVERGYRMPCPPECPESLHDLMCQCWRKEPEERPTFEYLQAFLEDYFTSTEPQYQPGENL
pIC50: −log10 of the molar value.
quantity_name: pIC50

Some compounds with known pIC50 results, for comparison:
C=Cn1cnc2c(Nc3ccc(P(C)(C)=O)cc3)ncnc21	6.00
CCn1cnc2c(Nc3ccc(P(C)(C)=O)cc3)nc(C(C)C)nc21	7.60
CCn1cnc2c(Nc3ccc(P(C)(C)=O)cc3)nc(NC3CCOCC3)nc21	7.39

(A) CCn1cnc2c(Nc3ccc(C(C)C)cc3)nc(C(C)C)nc21
(B) C=Cn1cnc2c(Nc3ccc(P(C)(C)=O)cc3)nc(OC3CCOC3)nc21 (stereo not given)
Q: Lab log: flag the item ( A or B ) with the smaller pIC50 figure. # answer = label of selected item
A: A
(A: 6.41, B: 6.73)

The reported measurements were obtained from ChEMBL document CHEMBL2034863.
